- Assay Target: UniProtKB P41145
- Sequence (P41145 whole entry): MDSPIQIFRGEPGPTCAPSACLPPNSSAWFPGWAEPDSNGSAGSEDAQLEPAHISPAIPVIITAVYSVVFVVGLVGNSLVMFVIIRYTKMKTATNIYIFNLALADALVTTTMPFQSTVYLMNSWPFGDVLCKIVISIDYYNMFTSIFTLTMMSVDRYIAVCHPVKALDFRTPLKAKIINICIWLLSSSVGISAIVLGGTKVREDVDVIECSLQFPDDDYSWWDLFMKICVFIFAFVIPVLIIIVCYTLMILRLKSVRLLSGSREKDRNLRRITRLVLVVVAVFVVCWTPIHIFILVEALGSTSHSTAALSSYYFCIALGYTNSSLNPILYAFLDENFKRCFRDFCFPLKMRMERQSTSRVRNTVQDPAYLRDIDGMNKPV
- Assay: biochemical
- Assay type: binding
- Test Settings: read-out: Ki at κ receptors
Known Ki of a selection of molecules

Molecule | Ki
CCC(=O)O[C@H]1C[C@@H](C(=O)OC)[C@]2(C)CC[C@H]3C(=O)O[C@H](c4ccoc4)C[C@]3(C)[C@H]2C1=O [Compound 9] | 0.0018 µM
COC(=O)[C@@H]1C[C@H](OC(=N)C(Cl)(Cl)Cl)C(=O)[C@H]2[C@@]1(C)CC[C@H]1C(=O)O[C@H](c3ccoc3)C[C@]21C [Compound 21] | 0.064 µM
C=CCNC(=O)O[C@H]1C[C@@H](C(=O)OC)[C@]2(C)CC[C@H]3C(=O)O[C@H](c4ccoc4)C[C@]3(C)[C@H]2C1=O [Compound 23] | 0.12 µM
COC(=O)[C@@H]1C[C@H](OC(C)=O)[C@H](OC(C)=O)[C@H]2[C@@]1(C)CC[C@H]1C(=O)O[C@H](c3ccoc3)C[C@]21C [Compound 20] | 0.65 µM
COC(=O)[C@@H]1C[C@H](OS(C)(=O)=O)C(=O)[C@H]2[C@@]1(C)CC[C@H]1C(=O)O[C@H](c3ccoc3)C[C@]21C [Compound 15] | 0.0023 µM
COC(=O)[C@@H]1C[C@H](OC(=O)Nc2ccccc2)C(=O)[C@H]2[C@@]1(C)CC[C@H]1C(=O)O[C@H](c3ccoc3)C[C@]21C [Compound 22] | 0.093 µM
COC(=O)C(=O)O[C@H]1C[C@@H](C(=O)OC)[C@]2(C)CC[C@H]3C(=O)O[C@H](c4ccoc4)C[C@]3(C)[C@H]2C1=O [Compound 12] | 0.43 µM
COC(=O)[C@@H]1C[C@H](O[Si](C)(C)C)C(=O)[C@H]2[C@@]1(C)CC[C@H]1C(=O)O[C@H](c3ccoc3)C[C@]21C [Compound 16] | 1.61 µM
COC(=O)[C@@H]1C[C@H](OC(=O)c2ccccc2)C(=O)[C@H]2[C@@]1(C)CC[C@H]1C(=O)O[C@H](c3ccoc3)C[C@]21C [Compound 13] | 0.09 µM
C=C(C)C(=O)O[C@H]1C[C@@H](C(=O)OC)[C@]2(C)CC[C@H]3C(=O)O[C@H](c4ccoc4)C[C@]3(C)[C@H]2C1=O [Compound 11] | 0.042 µM
COC(=O)[C@@H]1C[C@H](OC(=O)C(C)C)C(=O)[C@H]2[C@@]1(C)CC[C@H]1C(=O)O[C@H](c3ccoc3)C[C@]21C [Compound 10] | 0.019 µM
COC(=O)[C@@H]1C[C@H](OC(=O)c2cccnc2)C(=O)[C@H]2[C@@]1(C)CC[C@H]1C(=O)O[C@H](c3ccoc3)C[C@]21C [Compound 14] | 1.93 µM
